# Test protocol: Toxicity liver stage against HepG2, at 10uM
# Assay type: cell-based
# Design: test concentration 10 uM, cell line HepG2-A16-CD81EGFP
# Test conditions: human, HepG2-A16-CD81EGFP cells; read-out: INHIBITION
Assay metric: cytotoxicity at 10 µM (%)

>>> print(df.to_string())
                                    compound  unit  measurement
 0         CNC(=O)CCOC(=O)c1cccc(-n2cccn2)c1     %        -39.6
 1  COC(=O)C1CCN(C(=O)Cn2ccc(-c3ccc(F)cc3)n2)CC1     %        -5.31
 2  CC(C)c1nn(C)c(N(C)C)c1CNC1CCc2cc(F)ccc21 (stereo not given)     %         1.93
 3  O=C(NC[C@H]1C[C@@H]2CN(C(=O)c3ccno3)C[C@@H]2O1)C1CCC1     %        -5.21
 4        NC(=O)c1cccc(C2CCN(c3ncccn3)CC2)n1     %      0.00505
 5  CCN(CC)Cc1ccc(C(=O)NC2CCc3cc(Br)ccc32)o1 (stereo not given)     %         -3.3
 6  N#CC1(C(=O)N2C[C@H](Nc3ncccn3)[C@@H](C3CC3)C2)CCOCC1     %         5.44
 7  COc1ccc(-c2n[nH]cc2CNC2CCN(C3CC3)CC2)cc1     %         1.75
 8  CCN1CCC(NC(=O)CN2CCCCC2Cn2cncn2)CC1 (stereo not given)     %         3.27
 9      FC(F)(F)c1cc(C2CCNCC2)nc(-c2ccsc2)n1     %          8.6
10           O=C(c1[nH]nc(C2CC2)c1Cl)N1CCCC1     %        -3.78
11    Cc1cc(S(=O)(=O)NC(=O)CCc2cccnc2)c(C)s1     %         8.28
12  CCC1CN(C)c2ccccc2CN1C(=O)c1c[nH]c(=O)cc1C (stereo not given)     %         16.1
13  CCOCCn1c(=O)n(Cc2ccccc2F)c2cc(C(=O)O)cnc21     %        -6.46
14  c1ccc(CN2CCOC3(CCCN(c4nccs4)C3)C2)cc1 (stereo not given)     %         13.7
15    Fc1ccc(CN2CCC3(CCN(Cc4nccs4)CC3)C2)cc1     %         5.04
16   Cc1ccc(CN2CCc3onc(C(=O)NCCN(C)C)c3C2)o1     %          5.9
17  CC(=O)N1CCC(c2ccnc(Nc3cncnc3)n2)C1 (stereo not given)     %        0.951
18             COCCN1CCCn2cnc(CNC3CCCC3)c2C1     %         4.92
19  CC(C)(C)NC(=O)C1(Cc2ccccc2-c2ccncc2)CCOCC1     %        -6.99
20  Clc1nc2ccccn2c1CNCC1CN(C2CC2)CCO1 (stereo not given)     %        -3.06
21   COc1ccccc1N1CCN(Cc2ncc(C)c(OC)c2C)CC1=O     %         6.18
22      O=C1CC2(CCCC2)CC(=O)N1Cc1nc2ncccn2n1     %         2.49
23   NC(=O)C1CCN(C(=O)NCc2ccccc2Cn2cncn2)CC1     %         3.98
24  Cc1ccc(OCC(O)CNC(=O)C2(c3ccc(F)cc3)CC2)cc1 (stereo not given)     %        0.675
25  CN(C)C(=O)Cn1c2c(ccc1=O)CCN(Cc1cnn(C)c1)CC2     %        0.886
26  CN(C)[C@@H]1CN(Cc2ccc(O)cc2)C[C@H]1c1cn(C)c2ccccc12     %         2.39
27  CCc1nnc(CN(CC)C(=O)C2CC(=O)N(C3CC3)C2)o1 (stereo not given)     %       -0.143
28  COc1cccc(CC(=O)N2CC[C@@H]3CN(C)S(=O)(=O)[C@@H]3CC2)c1     %        -2.36
29  O=C1c2ccccc2C(=O)N1CC(O)Cn1nc(-c2cccs2)oc1=O (stereo not given)     %        -14.5
30   Cn1cc(C(=O)N2CCN(c3ccc(F)cc3)CC2)ccc1=O     %         1.37
31  COc1cccc(N2CCN(C(=O)C(OC)c3ccccc3)CC2=O)c1 (stereo not given)     %       -0.693
32  COc1cccc(-c2n[nH]c3c2CN(C(=O)c2cccc(=O)[nH]2)CC3)c1     %        -5.66
33  COc1cccc2c(C)c(C(=O)N3CCNCC3C(N)=O)[nH]c12 (stereo not given)     %         1.67
34  CC(C)c1cc(C(=O)N2CCCC(n3cncn3)C2)n[nH]1 (stereo not given)     %        -11.9

Source: ChEMBL document CHEMBL4513216
